experimentNotes: Drug level in plasma of Sprague-Dawley rat at 30 mg/kg, po measured after 6 hrs
Type: ADME, organism-based
Design: dose 30 mg/kg, route oral
experimentalParameters: read-out: Drug uptake
measuredQuantity: concentration at 6 h (nM)

CCN(C)C(=O)c1ccc(-c2ccc3c(n2)Oc2ccccc2[C@@H]3C(C)(C)C(=O)Nc2nncs2)cc1F | 1110
CN(C)C(=O)c1ccc(-c2ccc3c(n2)Oc2ccccc2[C@H]3C(C)(C)C(=O)Nc2nncs2)cc1F | 788

###

experimentNotes: Volume of distribution at steady state in Sprague-Dawley rat at 1 mg/kg, iv
Format: ADME, organism-based
Parameters: dose 1 mg/kg, route intravenous
experimentalParameters: in vivo, read-out: Vdss
measuredQuantity: Vd (L/kg)

I: CCN(C)C(=O)c1ccc(-c2ccc3c(n2)Oc2ccccc2[C@@H]3C(C)(C)C(=O)Nc2nncs2)cc1F
II: CN(C)C(=O)c1ccc(-c2ccc3c(n2)Oc2ccccc2[C@H]3C(C)(C)C(=O)Nc2nncs2)cc1F
Query: For the pair I and II , which entry has the numerically smaller recorded Vd? Please respond with the label that marks your chosen entry.
Result: I
(I: 0.5 L/kg, II: 1 L/kg)
